Below, each of the molecules is paired with its reported MIC value.
# System: Human respirovirus 3
# test.method.notes: Antiviral activity against parainfluenza virus type 3 in Vero cell culture lines
# Type: functional
quantity.measured: MIC

molecule | experimental.system | reported.result
Nc1ncnc2c([C@@H]3O[C@H](CO)C[C@H]3O)n[nH]c12 | Human respirovirus 3 | 300 µg/mL
CCCCOC(=O)C(N)CCSC[C@H]1OC(n2ccc3c(N)ncnc32)[C@H](O)[C@@H]1O (stereo partly drawn) | Human respirovirus 3 | 150 µg/mL
Nc1ncnc2c1ccn2C1O[C@H](CSCCC(NC(=O)C(F)(F)F)C(=O)O)[C@@H](O)[C@H]1O (stereo partly drawn) | Human respirovirus 3 | > 400 µg/mL
COC(=O)C(CCSC[C@@H]1C[C@@H](O)[C@H](n2ccc3c(N)ncnc32)O1)NC(=O)C(F)(F)F (stereo partly drawn) | Human respirovirus 3 | > 200 µg/mL
Nc1nccc2ncn([C@H]3C[C@H](O)[C@@H](CO)O3)c12 | Human respirovirus 3 | > 400 µg/mL
CCOC(=O)C(CCSC[C@H]1OC(n2ccc3c(N)ncnc32)[C@H](O)[C@@H]1O)NC(=O)COC (stereo partly drawn) | Human respirovirus 3 | > 400 µg/mL
NC(=O)c1ncn([C@@H]2O[C@H](CO)[C@@H](O)[C@H]2O)n1 | Human respirovirus 3 | 70 µg/mL
CC(C)(C)C(=O)OCn1nc([C@@H]2O[C@H](CO)[C@@H](O)[C@H]2O)c2ncnc(N)c21 | Human respirovirus 3 | 1 µg/mL
COCC(=O)NC(CCSC[C@H]1OC(n2ccc3c(N)ncnc32)[C@H](O)[C@@H]1O)C(=O)O (stereo partly drawn) | Human respirovirus 3 | > 400 µg/mL
Nc1ncnc2c1ncn2[C@@H]1O[C@H](CCl)C[C@H]1O | Human respirovirus 3 | > 40 µg/mL
CC(C)OC(=O)C(N)CCSC[C@H]1OC(n2ccc3c(N)ncnc32)[C@H](O)[C@@H]1O (stereo partly drawn) | Human respirovirus 3 | 20 µg/mL
Nc1ncnc2c(C3O[C@H](CCl)[C@@H](O)[C@H]3O)n[nH]c12 (stereo partly drawn) | Human respirovirus 3 | 70 µg/mL
Nc1ncnc2c([C@H]3C[C@@H](O)[C@@H](CO)O3)n[nH]c12 | Human respirovirus 3 | > 400 µg/mL
CCOC(=O)C(CCSC[C@H]1OC(n2ccc3c(N)ncnc32)[C@H](O)[C@@H]1O)NC(=O)C(F)(F)F (stereo partly drawn) | Human respirovirus 3 | > 20 µg/mL
CCCOC(=O)C(N)CCSC[C@H]1OC(n2ccc3c(N)ncnc32)[C@H](O)[C@@H]1O (stereo partly drawn) | Human respirovirus 3 | > 70 µg/mL
CCOC(=O)C(CCSC[C@H]1OC(n2ccc3c(N)ncnc32)[C@H](O)[C@@H]1O)NC(C)=O (stereo partly drawn) | Human respirovirus 3 | > 40 µg/mL
CC(C)OC(=O)C(CCSC[C@H]1OC(n2ccc3c(N)ncnc32)[C@H](O)[C@@H]1O)NC(=O)C(F)(F)F (stereo partly drawn) | Human respirovirus 3 | > 50 µg/mL
Nc1ncnc2c(C3O[C@H](CSCCC(N)C(=O)O)[C@@H](O)[C@H]3O)n[nH]c12 (stereo partly drawn) | Human respirovirus 3 | 30 µg/mL

Data origin: ChEMBL document CHEMBL1126104
